assay.system: T1, Human CD3εδ Fc heterodimer (Hu CD3ε Fc + CD3δ Fc-HIS) (human, UniProt P07766 22-126; P04234 22-100)
T1 construct: range 22-126;range 22-100; Made in HEK 293 cells with a heterologous signal peptide; also called Hu CD3εδ-Fc; CD3εδ Fc-HIS heterodimer; not shown: Fc; Fc followed by HIS tag
T1 sequence (P07766 22-126, stated change not applied, form in doubt, chain 1 of 2): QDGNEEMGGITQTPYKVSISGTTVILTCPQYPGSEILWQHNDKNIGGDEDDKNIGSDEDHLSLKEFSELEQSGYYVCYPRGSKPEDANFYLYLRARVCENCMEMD
T1 sequence (P04234 22-100, stated change not applied, form in doubt, chain 2 of 2): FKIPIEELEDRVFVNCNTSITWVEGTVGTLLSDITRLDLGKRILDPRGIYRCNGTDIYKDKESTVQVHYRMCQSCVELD
experiment.summary: SPR (Biacore), Fab over immobilized CD3εδ Fc, pH 6.0
Kindly supply the reported log10 of Kd values for the records listed here.
Plainly stated, the numbers are log10 of Kd given in nM.

Observe how each entry below is paired with its result.
What value of measured log10 of Kd is listed for Antibody No. V016 (ADI-76359) Fab (Fab, V domains shown, Fab by papain digestion of the IgG1) VH: QVQLVQSGAEVKKPGASVKVSCKASGFDIKDYYMHWVRQAPGQRLEWMGWIDLENANTIYDAKFQGRVTITRDTSASTAYMELSSLRSEDTAVYYCGRDAYGRYFYDVWGQGTLVTVSS VL: DIVMTQSPDSLAVSLGERATINCKSSQSLLNARTGKNYLAWYQQKPGQPPKLLIYWASTRESGVPDRFSGSGSGTDFTLTISSLQAEDVAVYYCKQSYSLRTFGGGTKVEIK ? 1.34

What value of measured log10 of Kd is listed for Antibody No. A002 (ADI-50024) Fab (Fab, V domains shown, Fab by papain digestion of the IgG1) VH: QVQLVQSGAEVKKPGASVKVSCKASGFNIKDYYMHWVRQAPGQRLEWIGWIDLENANTVYDAKFQGRVTITRDTSASTAYMELSSLRSEDTAVYYCARDAYGRYFYDVWGQGTLVTVSS VL: DIVMSQSPDSLAVSLGERATINCKSSQSLLNARTGKNYLAWYQQKPGQPPKLLIYWASTRSSGVPDRFSGSGSGTDFTLTISSLQAEDVAVYYCVQSYFRRTFGGGTKVEIK ? -0.51

What value of measured log10 of Kd is listed for Antibody No. V014 (ADI-76357) Fab (Fab, V domains shown, Fab by papain digestion of the IgG1) VH: QVQLVQSGAEVKKPGASVKVSCKASGFDIKDYYMHWVRQAPGQRLEWMGWIDLENANTIYDAKFQGRVTITRDTSASTAYMELSSLRSEDTAVYYCARDQYGRYFYDVWGQGTLVTVSS VL: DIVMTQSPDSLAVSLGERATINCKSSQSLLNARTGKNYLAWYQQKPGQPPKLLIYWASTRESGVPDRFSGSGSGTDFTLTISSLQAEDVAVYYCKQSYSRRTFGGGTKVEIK ? 1.08

# return log10 of Kd for each item in the list
1. Antibody No. A003 (ADI-26913) Fab (Fab, V domains shown, Fab by papain digestion of the IgG1) VH: QVQLVQSGAEVKKPGASVKVSCKASGFNIKDYYMHWVRQAPGQRLEWMGWIDLENANTIYDAKFQGRVTITRDTSASTAYMELSSLRSEDTAVYYCARDQYGRYFYDVWGQGTLVTVSS VL: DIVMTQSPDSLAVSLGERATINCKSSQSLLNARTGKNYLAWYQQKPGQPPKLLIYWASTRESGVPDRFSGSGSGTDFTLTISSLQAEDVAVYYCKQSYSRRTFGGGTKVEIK
2. Antibody No. V002 (ADI-67445) Fab (Fab, V domains shown, Fab by papain digestion of the IgG1) VH: QVQLVQSGAEVKKPGASVKVSCKASGFNIKDYYMHWVRQAPGQRLEWMGWIDLENAETIYDAKFQDRVTITRDTSASTAYMELSSLRSEDTAVYYCARDAYGRYFYDEWGQGTLVTVSS VL: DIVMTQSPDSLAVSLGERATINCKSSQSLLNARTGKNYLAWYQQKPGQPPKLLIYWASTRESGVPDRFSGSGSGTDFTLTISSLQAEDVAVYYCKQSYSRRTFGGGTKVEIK
3. Antibody No. V015 (ADI-76358) Fab (Fab, V domains shown, Fab by papain digestion of the IgG1) VH: QVQLVQSGAEVKKPGASVKVSCKASGFNIKDYYMHWVRQAPGQRLEWMGWIDLENADTIYDAKFQGRVTITRDTSASTAYMELSSLRSEDTAVYYCARDQYGRYFYDVWGQGTLVTVSS VL: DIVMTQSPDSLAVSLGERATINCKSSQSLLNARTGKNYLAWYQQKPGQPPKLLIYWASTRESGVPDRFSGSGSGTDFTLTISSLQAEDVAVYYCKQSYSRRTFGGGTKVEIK

1: 1.04; 2: 0.62; 3: 1.15
